STUDY_TARGET: T1, MICA*008 on MEL-JUSO cells (human, UniProt Q29983 24-317); note: test concentration or dose not given here
T1 chain: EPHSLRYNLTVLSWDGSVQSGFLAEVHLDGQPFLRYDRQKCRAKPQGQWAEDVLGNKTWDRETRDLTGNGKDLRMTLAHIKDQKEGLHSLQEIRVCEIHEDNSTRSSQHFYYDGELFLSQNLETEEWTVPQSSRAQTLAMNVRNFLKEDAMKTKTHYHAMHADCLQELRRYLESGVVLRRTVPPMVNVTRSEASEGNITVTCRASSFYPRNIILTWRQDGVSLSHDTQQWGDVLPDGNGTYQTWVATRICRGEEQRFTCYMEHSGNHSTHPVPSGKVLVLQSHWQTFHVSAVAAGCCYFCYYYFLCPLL
PROTOCOL_TEXT: cell-based or functional assay
READOUT_TYPE: % Inhibition
Answer format: value, then unit.

>  <BINDER>
15F11v3 (antibody, IgG1, V domains shown, humanized variant of 15F11) VH: EVQLVQSGAEVKKPGASVKVSCKASGYAFTSNNIYWVRQAPGQGLEWIGYIDPYIGRIIYNQQFKDRVTITADTSTSTAYLELSSLRSEDTAVYYCSRSGERSNFDYWGQGTLVTVSS VL: EIVLTQSPATLSLSPGERATLSCSASSSISSNYLHWYQQKPGQSPRLLIYRTSNLASGVPARFSGSGSGTDYTLTISSLEPEDFAVYYCQQGGSLPLTFGQGTKVEIK

>  <% Inhibition>
50%

$$$$
>  <BINDER>
13A9 (antibody, V domains shown, mouse variable domains) VH: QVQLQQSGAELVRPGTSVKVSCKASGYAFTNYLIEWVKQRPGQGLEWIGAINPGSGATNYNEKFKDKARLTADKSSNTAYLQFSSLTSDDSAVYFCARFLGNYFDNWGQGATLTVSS VL: DIQMTQSPASLSASVGETVTITCRASGNIHSYLAWYQQKQGKSPQLLVYYAETLADGVPSRFSGRGSGTQYSLKINSLQPEDFGSYFCQQFWTTPYTFGGGTKVEIK

>  <% Inhibition>
-7%

$$$$

Please give the measured % Inhibition for this binder: 1D5v1 (antibody, IgG1, V domains shown, humanized variant of 1D5; also called lD5v1) VH: EIQLVQSGAEVKKPGASVKVSCKASGYAFTSQNIYWVRQAPGQGLEWIGYIEPYNVVPMYNPKFKGRATLTVDKSTSTAYMELRSLRSDDTAVYYCARSGSSNFDYWGQGTLVTVSS VL: EIVLTQSPDFQSVTPKEKVTITCSASSSISSHYLHWYQQKPDQSPKLLIYRTSNLASGVPSRFSGSGSGTDYTLTINSLEAEDAATYYCQQGSSLPLTFGQGTKVEIK 52%

Origin of values: patent US20200055939A1
